molecular target: Coagulation factor X (Homo sapiens); assay: Inhibition of activated factor X (unknown origin) using CH3O-CO-D-CHG-Gly-Arg-pNA-AcOH as substrate by […]
Sequence (P00742 41-179 limits assumed): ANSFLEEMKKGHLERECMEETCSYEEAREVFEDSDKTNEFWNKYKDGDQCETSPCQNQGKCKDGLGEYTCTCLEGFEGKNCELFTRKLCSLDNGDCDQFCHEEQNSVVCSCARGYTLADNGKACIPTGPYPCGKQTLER
Sequence (P00742 235-488 limits assumed): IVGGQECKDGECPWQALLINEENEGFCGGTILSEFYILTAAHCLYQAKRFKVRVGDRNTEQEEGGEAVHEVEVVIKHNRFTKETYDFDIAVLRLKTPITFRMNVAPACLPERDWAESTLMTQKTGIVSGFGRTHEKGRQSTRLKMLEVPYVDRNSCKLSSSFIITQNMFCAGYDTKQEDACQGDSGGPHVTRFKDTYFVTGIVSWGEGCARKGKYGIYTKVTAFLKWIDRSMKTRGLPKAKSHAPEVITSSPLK
pIC50: −log10 of the molar value.
recordedMetric: pIC50

Reference set, count: 4
| molecule | experimentalResult |
| --- | --- |
| Cc1ccc(-c2ncnc(Nc3cccc(C(=N)N)c3)c2O)cc1 | < 4.52 |
| Cc1ccc(-c2ncnc(Nc3ccc(C(=N)N)cc3)c2O)cc1 | 6.56 |
| Cc1ccc(-c2ncnc(Nc3ccc4c(c3)CNC4=N)c2O)cc1 | 4.74 |
| Cc1ccc(-c2ncnc(Nc3cccc(C#N)c3)c2O)cc1 | < 4.52 |

Kindly note the recorded pIC50 for "Cc1ccc(-c2ncnc(Oc3ccc(C(=N)N)cc3)c2O)cc1" , which is < 4.52

Noted for "Cc1ccc(-c2ncnc(Nc3ccc4c(c3)CNC4=O)c2O)cc1" : its pIC50 reads < 4.52

Reported pIC50 for Cc1ccc(-c2ncnc(NC3CCc4nc(N)sc4C3)c2O)cc1 (configuration not stated) was < 4.52

Looking up "Cc1ccc(-c2ncnc(-c3nc4cc(C(=N)N)ccc4[nH]3)c2O)cc1" , I see its pIC50 listed as 5.28

So, "Cc1ccc(-c2ncnc(N[C@H]3CC[C@H](CN)CC3)c2O)cc1" ? Its pIC50 was < 4.52

Briefly, pIC50 measured for "Cc1ccc(-c2ncnc(Nc3ccc(C(=N)N)cc3Cl)c2O)cc1" : < 4.52

Per the record, "Cc1ccc(-c2ncnc(Nc3ccc(C(N)=O)cc3)c2O)cc1" has pIC50 of < 4.52

The recorded pIC50 for entry "Cc1ccc(-c2ncnc(Nc3ccc4ccncc4c3)c2O)cc1" equals < 4.52

* * *

biological target: UniProt:P00740; experiment: Inhibition of activated factor IX (unknown origin) using CH3SO2-D-CHG-Gly-Arg-pNA:AcOH as substrate by […]
Sequence (P00740 47-191 limits assumed): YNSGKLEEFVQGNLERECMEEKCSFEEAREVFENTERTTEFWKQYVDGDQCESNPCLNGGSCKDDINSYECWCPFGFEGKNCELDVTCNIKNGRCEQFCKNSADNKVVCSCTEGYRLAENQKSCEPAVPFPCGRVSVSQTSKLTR
Sequence (P00740 227-461 limits assumed): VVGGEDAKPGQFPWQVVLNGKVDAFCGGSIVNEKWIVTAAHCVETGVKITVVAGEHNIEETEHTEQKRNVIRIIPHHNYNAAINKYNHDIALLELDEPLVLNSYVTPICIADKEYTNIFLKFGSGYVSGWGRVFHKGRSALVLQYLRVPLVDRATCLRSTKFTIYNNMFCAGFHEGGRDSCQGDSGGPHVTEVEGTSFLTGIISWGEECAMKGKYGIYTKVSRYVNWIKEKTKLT
Here, each record is paired with measured pIC50 data.
Lab note — pIC50 values are minus log10 of concentrations in M.

The following molecules have reported results that may help.
| entrySmiles | pIC50 |
| --- | --- |
| Cc1ccc(-c2ncnc(Nc3ccc(C(N)=O)cc3)c2O)cc1 | 5.62 |
| N=C(N)c1ccc2[nH]c(-c3ncnc(-c4ccccc4)c3O)nc2c1 | 6.32 |

Please look at the following molecule next.
Measured pIC50 for this entry "Cc1ccc(-c2ncnc(Nc3cccc(C#N)c3)c2O)cc1" on UniProt:P00740: 5.24
